Reference source: patent US20220211812A1

# TARGET OF ASSAY: T1, human RXFP1 receptor (human, UniProt Q9HBX9 1-757)
# T1 sequence (looked up): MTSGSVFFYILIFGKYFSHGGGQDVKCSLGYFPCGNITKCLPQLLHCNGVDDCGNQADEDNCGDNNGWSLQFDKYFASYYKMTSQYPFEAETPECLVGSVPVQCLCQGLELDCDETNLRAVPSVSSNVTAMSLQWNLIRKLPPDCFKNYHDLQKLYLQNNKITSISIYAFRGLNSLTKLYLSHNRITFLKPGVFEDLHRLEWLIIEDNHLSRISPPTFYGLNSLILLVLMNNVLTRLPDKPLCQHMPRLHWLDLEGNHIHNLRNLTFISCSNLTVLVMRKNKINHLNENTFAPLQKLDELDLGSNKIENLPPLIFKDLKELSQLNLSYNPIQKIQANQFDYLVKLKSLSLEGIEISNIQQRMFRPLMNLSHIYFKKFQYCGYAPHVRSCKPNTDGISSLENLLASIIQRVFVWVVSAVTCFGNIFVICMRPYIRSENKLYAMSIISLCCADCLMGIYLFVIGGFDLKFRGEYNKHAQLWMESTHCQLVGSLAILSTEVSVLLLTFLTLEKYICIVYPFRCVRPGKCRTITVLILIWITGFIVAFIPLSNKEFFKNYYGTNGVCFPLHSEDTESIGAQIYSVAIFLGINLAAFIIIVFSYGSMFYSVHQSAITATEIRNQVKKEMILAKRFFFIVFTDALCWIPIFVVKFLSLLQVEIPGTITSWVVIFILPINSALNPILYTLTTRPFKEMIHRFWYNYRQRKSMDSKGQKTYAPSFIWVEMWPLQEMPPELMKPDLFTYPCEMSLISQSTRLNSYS
# TEST: cell-based or functional assay
Square brackets hold non-standard residues; d marks the D form. Ends that are not written are not given here. Phe(4-Ac) = CC(=O)c1ccc(C[C@H](N)C(=O)O)cc1
We label by threshold. Values of hRXFP1/CHO-K1 cAMP EC50 (nM, avg) strictly beneath 0.2 nM are rule met. Values of 0.2 nM and up are rule not met.

Decide: hRXFP1/CHO-K1 cAMP EC50 (nM, avg) of AQ1-KK-Glu^γ-C14-COOH (ligand, not fully specified; Glu^γ bonded by amide to fatty acid -C14-COOH; oxime-linked to pAcF of the A chain; pAcF (para-acetyl-L-phenylalanine) at position 1, oxime-linked to PK enhancer …) chain 1: XLYSALANKCCHVGCTKRSLARFC chain 2: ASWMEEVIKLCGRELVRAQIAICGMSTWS peptide: KKE strictly below 0.2 nM?
rule not met

Quick check: hRXFP1/CHO-K1 cAMP EC50 (nM, avg) of BM25/AN1-C13-CH3 (ligand, disulfide (positions not given here); not fully specified (some residues); ends not checked; also: PK enhancer C13-CH3 oxime-linked to pAcF25) chain 1: NLYSALANKCCHVGCTKRSLARFC chain 2: ASWMEEVIKLCGRELVRAQIAICG[Phe(4-Ac)]STWS under 0.2 nM?
rule not met

API: query returns whether the binder falls strictly under 0.2 nM in hRXFP1/CHO-K1 cAMP EC50 (nM, avg). Query: AQ1-GGGGS-Glu^γ-C13-COOH (ligand, not fully specified; Glu^γ bonded by amide to fatty acid -C13-COOH; oxime-linked to pAcF of the A chain; pAcF (para-acetyl-L-phenylalanine) at position 1, oxime-linked to PK enhancer GGGGS-Glu^γ-C13-COOH) chain 1: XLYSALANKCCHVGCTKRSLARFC chain 2: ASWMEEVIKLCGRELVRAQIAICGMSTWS peptide: GGGGSE
rule met
